System: KM12
ASSAY: NCI tumour cell line growth inhibition, 48 h
Active and inactive are the calls of the source. No stated cut-off is given here; in the data, active = GI50 up to about 1.1 µM and inactive = higher.
Possible outcomes: active, inactive

# COMPOUND, GROUP
measured = [
    ("O=C(CN1c2ccccc2Sc2ccccc21)n1cnc2ccccc21", "inactive"),
    ("CCCCCCCCCCCCOCCCCCCCCC/C=C/c1ccc2c(c1)OCCOCCOCCOCCO2", "inactive"),
    ("CC(=O)OCC1=C(CCC#N)N2C(=O)C(NC(=O)Cc3cccs3)C2[S+]([O-])C1 (stereo not given)", "inactive"),
    ("Cc1cc(S(=O)(=O)Nc2nnc3c(Cl)cc(C(F)(F)F)cn23)c(S)cc1Cl", "inactive"),
    ("CC[C@H](CO)Nc1nc(NCc2ccccc2)c2ncn(C(C)C)c2n1 [SELICICLIB]", "inactive"),
    ("C=CCC1[C@@H](C(C)(C)C(C(C)=O)C(=O)C(=O)OC)OC(C(C)(C)C)N1C(=O)OC (stereo not given in full)", "inactive"),
    ("CC(=O)OC(OC(C)=O)c1c2ccccc2cc2ccccc12", "inactive"),
    ("CCOc1ccc(NC(=O)/C=C/c2ccco2)cc1", "inactive"),
    ("CC(Cc1ccc(Cl)cc1Cl)NO (stereo not given)", "inactive"),
    ("Cc1ccc(/N=N/c2ccc(O)c(CN(C)C)c2)cc1C", "inactive"),
    ("C/C1=C/C(=O)O[C@@H]2C[C@@H](CC[C@H](C)/C=C\\C=C\\CC1)O[C@@](O)([C@@H]1CSC(=O)N1)C2 [LATRUNCULIN A]", "inactive"),
    ("CCC1OC2(C)CC(C#N)(C#N)C1(C#N)C(=N)O2 (stereo not given)", "inactive"),
    ("CCOC(=O)/C=C/CC(C)(C)COC(C)=O", "active"),
    ("CC1=C(C(=O)Nc2ccccc2)C2(CCCCC2)C(C#N)=C(SCC(=O)Nc2ccc(Br)cc2)N1", "inactive"),
    ("NC12c3c4cccc3Oc3cccc(c31)Oc1cccc(c12)O4", "inactive"),
    ("COC(=O)Cn1c(=O)oc2nc(-c3ccccc3)cc(C(F)(F)F)c21", "inactive"),
    ("N#CC(OC1OC(COC2OC(CO)C(O)C(O)C2O)C(O)C(O)C1O)c1ccccc1 (stereo not given)", "inactive"),
    ("CC(=O)OCC1(CNc2nc(N)ncc2C#N)CC(CCc2ccccc2)C1 (stereo not given)", "inactive"),
    ("Cc1c2cnccc2c(C)c2c1c1ccccc1n2CCCN", "active"),
    ("Cc1ccc(C2(c3ccc(Cl)cc3)c3ccccc3C3=NCCN32)cc1 (stereo not given)", "inactive"),
    ("COC(=O)[C@H](C)NC(=O)C1(CNC(=O)[C@H](C)NC(=O)OC(C)(C)C)Cc2ccccc2-c2ccccc2C1", "inactive"),
    ("CCOc1c(Cc2ccccc2)c(=O)n2c3ccccc3n3c(=O)n(C)c(=O)c1c23", "inactive"),
    ("CCN(CC)CCCNc1n[n+]([O-])c2ccccc2[n+]1[O-]", "inactive"),
    ("Cc1ccc(Oc2ccccc2N)cc1", "inactive"),
    ("CN(/N=C/c1cccc2cccnc12)c1ccc([N+](=O)[O-])cc1", "inactive"),
    ("COc1cc2c(cc1OC)C(Cc1ccccc1CCCl)=NCC2", "inactive"),
    ("O=C(O)CCc1cccc2c1oc1c(CCC(=O)O)cccc12", "inactive"),
    ("Cc1cc(NS(=O)(=O)c2ccc(NC(=O)c3cccc4cc5ccccc5nc34)cc2)no1", "inactive"),
    ("Cc1ccc(SCN2CCCCC2)cc1.O=C(Cl)c1ccc([N+](=O)[O-])cc1", "inactive"),
    ("Cc1nc(O)nc(N/N=C/c2ccc(Cl)cc2)c1C(=O)NC(C)(CO)CO", "inactive"),
    ("O=C(Nc1nc(C23CC4CC(CC(C4)C2)C3)cs1)c1cc2cc([N+](=O)[O-])ccc2oc1=O", "inactive"),
    ("c1ccc2c(c1)N=C(c1ccc3ccccc3c1)CC(c1cccc3ccccc13)S2 (stereo not given)", "inactive"),
    ("CO/N=C(\\C)c1cccc(Nc2nc3ccccc3c3occc23)c1", "inactive"),
    ("Nc1nc(SCC(=O)O)nc(O)c1N", "inactive"),
    ("O=C1NC2(CCNCC2)Oc2ccccc21", "inactive"),
]
